experiment: in vitro; type: in vitro ADME; conditions: human, plasma, Exp. PPB (fb*)
Positions of bridges follow the written chain, without caps; N, C: chain ends. Residues, ends and D or L forms follow the SMILES beside them.
READOUT LABEL: fraction unbound at 6 h, 1 μM
Just the number.

# MOLECULE, fraction unbound at 6 h, 1 μM
measured = [
    ("CC(C)[C@@H]1NC(=O)[C@H](CCCCN)NC(=O)[C@H](Cc2c[nH]c3ccccc23)NC(=O)[C@H](C)NC(=O)[C@@H](N)CSSC[C@@H](C(=O)O)NC(=O)[C@H]([C@@H](C)O)NC1=O [Pep.3] (H-CAWKVTC-OH; disulfide 1-7; N-terminus and C-terminus assumed)", 1),
]

The record that follows has no fraction unbound at 6 h, 1 μM shown yet.
Req: I have this molecule here, CC[C@H](C)[C@@H]1NC(=O)[C@H](CCCNC(=N)N)NC(=O)[C@@H](N)CSSC[C@@H](C(=O)O)NC(=O)[C@H](Cc2ccc(O)cc2)NC(=O)[C@H](CCCNC(=N)N)NC(=O)[C@H](CCCCN)NC1=O [Pep.16] (H-CRIKRYC-OH; disulfide 1-7; N-terminus and C-terminus assumed) , and I need its recorded fraction unbound at 6 h, 1 μM.
Resp: 0.849

----------
experiment: in vitro; type: in vitro ADME; details: human, plasma, Exp. PPB (fb*)
Positions of bridges follow the written chain, without caps; N, C: chain ends. Residues, ends and D or L forms follow the SMILES beside them.
READOUT LABEL: fraction unbound at 6 h, 1 μM
Answer using only a numeral; do not append any unit.

Req: Item under review: CC(C)[C@@H]1NC(=O)[C@H](Cc2c[nH]c3ccccc23)NC(=O)[C@@H](N)CSSC[C@@H](C(=O)O)NC(=O)[C@H](CCC(=O)O)NC(=O)[C@H](Cc2ccccc2)NC(=O)[C@H](CCC(N)=O)NC(=O)[C@@H]2CCCN2C(=O)[C@H](Cc2c[nH]cn2)NC1=O [Pep.10] (H-CWVHPQFEC-OH; disulfide 1-9; N-terminus and C-terminus assumed) . Reported fraction unbound at 6 h, 1 μM?
Resp: 0.633

Req: Endpoint output: fraction unbound at 6 h, 1 μM of N[C@H]1CSSC[C@@H](C(=O)O)NC(=O)[C@H](Cc2ccc(O)cc2)NC(=O)[C@H](Cc2ccc(O)cc2)NC(=O)[C@H](Cc2ccc(O)cc2)NC(=O)[C@H](Cc2ccc(O)cc2)NC(=O)[C@H](Cc2ccc(O)cc2)NC(=O)[C@H](Cc2ccc(O)cc2)NC(=O)[C@H](Cc2ccc(O)cc2)NC1=O [Pep.8] (H-CYYYYYYYC-OH; disulfide 1-9; N-terminus and C-terminus assumed) . Value?
Resp: 0.145

Req: What does the data say about its fraction unbound at 6 h, 1 μM? Entry: C[C@@H]1NC(=O)[C@H](Cc2c[nH]c3ccccc23)NC(=O)[C@H](C)NC(=O)[C@@H]2CCCN2C(=O)[C@H](C)NC(=O)[C@@H](N)CSSC[C@@H](C(=O)O)NC(=O)CNC(=O)[C@H](Cc2c[nH]cn2)NC1=O [Pep.14] (H-CAPAWAHGC-OH; disulfide 1-9; N-terminus and C-terminus assumed)
Resp: 0.926

Req: Report fraction unbound at 6 h, 1 μM for NCCCC[C@@H]1NC(=O)[C@H](Cc2c[nH]c3ccccc23)NC(=O)[C@H](Cc2ccccc2)NC(=O)[C@@H]2CCCN2C(=O)[C@H](Cc2ccccc2)NC(=O)[C@@H](N)CSSC[C@@H](C(=O)O)NC(=O)[C@H](Cc2ccc(O)cc2)NC1=O [Pep.4] (H-CFPFWKYC-OH; disulfide 1-8; N-terminus and C-terminus assumed) please.
Resp: 0.384

Where do these numbers come from? They come from paper PMC6311893.
